- Tested on: ISC-enriched organoids
- procedureDetails: Primary screen, 384-well 2.5-D organoid differentiation (ENR+CD, 6 days, Target Selective Inhibitor Library, vs whole-plate median): ATP (CellTiter-Glo 3D, CTG)
- runParameters: dose 0.40 uM
Where a name gives a salt, the structure may show the parent alone.
Consider the following molecules and their measured Z.CTG (standard z score) readings.
No unit in the answer, only the number.

Past entries and their recorded results:
> print(dat)
                                   molecule            measuredmetric  reportedresult
1  Cl.Cl.Cl.O[C@@H](COc1cccc2ncccc12)CN1CCN([C@@H]2c3ccccc3[C@@H]3[C@H](c4ccccc42)C3(F)F)CC1 [Zosuquidar (LY335979) 3HCl]  Z.CTG (standard z score)           0.470
2  NC(=O)c1cccc(-c2cccc(OC(=O)NC3CCCCC3)c2)c1 [URB597]  Z.CTG (standard z score)           0.154
3  COc1nc(C)cnc1NS(=O)(=O)c1cccnc1-c1ccc(-c2nnco2)cc1 [Zibotentan (ZD4054)]  Z.CTG (standard z score)          −0.022
4  CCC(COC(=O)c1cc(OC)c(OC)c(OC)c1)(c1ccccc1)N(C)C (stereo not drawn) [Trimebutine]  Z.CTG (standard z score)          −0.483
5  CC(/C=C/C(=O)NO)=C\[C@@H](C)C(=O)c1ccc(N(C)C)cc1 [Trichostatin A (TSA)]  Z.CTG (standard z score)          −1.913

Prompt: Which Z.CTG (standard z score) value is on record for Cc1ccc(NC(=O)C2(c3ccc4c(c3)OC(F)(F)O4)CC2)nc1-c1cccc(C(=O)O)c1 [VX-809 (Lumacaftor)] ?
Completion: −0.149

Prompt: Which Z.CTG (standard z score) value is on record for Cc1ccccc1C(=O)Nc1ccc(C(=O)N2CCCC(O)c3cc(Cl)ccc32)c(C)c1 (stereo not drawn) [Tolvaptan] ?
Completion: −0.019

Prompt: Which Z.CTG (standard z score) value is on record for Nc1cccc(-c2cc3c(Oc4cccc(O)c4)ncnc3[nH]2)c1 [TWS119] ?
Completion: 0.796

Prompt: Which Z.CTG (standard z score) value is on record for CC(C)OC(=O)OCOP(=O)(CO[C@H](C)Cn1cnc2c(N)ncnc21)OCOC(=O)OC(C)C [Tenofovir Disoproxil Fumarate] ?
Completion: −0.004

Prompt: Which Z.CTG (standard z score) value is on record for CNCc1ccc(-c2cc(-c3nc(-c4ccc(S(=O)(=O)C(C)C)cc4)cnc3N)on2)cc1 [VE-822] ?
Completion: −0.685

Prompt: Which Z.CTG (standard z score) value is on record for CCC(=O)Nc1cccc(Oc2nc(Nc3ccc(N4CCN(C)CC4)cc3OC)ncc2Cl)c1 [WZ4003] ?
Completion: 0.413

Prompt: Which Z.CTG (standard z score) value is on record for CC(C)(C)c1cc(/C=C(\C#N)C(N)=S)cc(C(C)(C)C)c1O [Tyrphostin AG 879] ?
Completion: −0.569

Prompt: Which Z.CTG (standard z score) value is on record for C[C@]1(c2nc3c(C(N)=O)cccc3[nH]2)CCCN1 [Veliparib (ABT-888)] ?
Completion: 0.132

Prompt: Which Z.CTG (standard z score) value is on record for Nc1nc(N)c2nc(-c3ccccc3)c(N)nc2n1 [Triamterene] ?
Completion: −0.394

Prompt: Which Z.CTG (standard z score) value is on record for COc1cc2c(Nc3ccc(NC(=O)c4ccccc4)cc3)ncnc2cc1OCCCN1CCOCC1 [ZM 447439] ?
Completion: 0.725
